Where do the numbers come from? From the supplement of paper PMC10065799.

target: FGFR3 (UniProt P22607); experiment: phosphorylation enrichment, bacterial display (enrichment ratio); higher = better substrate or ligand; peptides without Tyr show the background;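 note: 11-residue human phosphosite peptides and single-mutation variants displayed on the E. coli surface, counted by deep sequencing, each peptide's frequency after selection divided by its frequency in the unselected input library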;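 note: frequency after pTyr selection over input frequency; kinase dosed for 20-30% of maximal phosphorylation in three min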
Sequence (P22607 whole entry, looked up): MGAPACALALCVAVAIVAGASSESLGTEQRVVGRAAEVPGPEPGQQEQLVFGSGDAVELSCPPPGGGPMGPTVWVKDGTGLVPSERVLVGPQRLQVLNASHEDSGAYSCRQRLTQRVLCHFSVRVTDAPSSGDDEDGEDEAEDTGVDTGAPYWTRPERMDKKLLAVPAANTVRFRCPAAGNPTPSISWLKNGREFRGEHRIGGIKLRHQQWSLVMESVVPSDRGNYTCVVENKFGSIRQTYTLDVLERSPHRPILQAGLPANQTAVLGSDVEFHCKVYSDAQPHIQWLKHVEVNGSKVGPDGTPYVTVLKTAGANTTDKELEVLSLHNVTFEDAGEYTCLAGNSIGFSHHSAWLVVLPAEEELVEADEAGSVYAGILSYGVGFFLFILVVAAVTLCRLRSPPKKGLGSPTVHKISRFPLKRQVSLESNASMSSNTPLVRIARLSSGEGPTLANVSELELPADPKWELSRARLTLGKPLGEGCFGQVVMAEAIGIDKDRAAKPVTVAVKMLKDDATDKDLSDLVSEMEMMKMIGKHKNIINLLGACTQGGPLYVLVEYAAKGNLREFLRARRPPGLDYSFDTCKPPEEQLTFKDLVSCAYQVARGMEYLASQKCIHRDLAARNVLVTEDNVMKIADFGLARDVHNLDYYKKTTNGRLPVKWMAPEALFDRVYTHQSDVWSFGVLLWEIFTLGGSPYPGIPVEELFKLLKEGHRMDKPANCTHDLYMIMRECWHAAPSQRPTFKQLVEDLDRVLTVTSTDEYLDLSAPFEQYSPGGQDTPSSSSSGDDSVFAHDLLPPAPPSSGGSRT
Hi all, reminder that labels come from phosphorylation enrichment, split as low bin = under 0.6, mid bin = from 0.6 up to 0.8, high bin = 0.8 and over

• TQPSPYAVFLF [RPGRIP1_Y823_R827L_YF] = high bin
• SFGMVYEGNAR [INSR_Y1038] = low bin
• EALDFYGELRT [PTEN_Y155_V158L] = high bin
• CTTIQYNYMCN [TP53_Y234_H233Q] = mid bin
• SAEKAYHEQFS [TUBA1A_Y282_L286F] = low bin
• EAEPFYCSLRD [NPHS1_Y1139_R1140C_YF] = high bin
• WGLRSYFETSK [MAGED2_Y448_YF] = mid bin
• ETLLYYGYRRS [POR_Y564_C566Y] = high bin
• SVVVPYEPPEV [TP53_Y220] = mid bin
• HMRLRYLAAEE [CEP120_Y884_Q879H] = high bin
• VRSTEYPCAGL = low bin
• ATFRGYDSDNP [MMUT_Y146_H143Y_YF] = low bin
• SNNYIYTTLGV [FAM83B_Y639_K640T] = high bin
• PGIRMYRVQFN [LRFN1_Y454_Q455R_YF] = mid bin
• NHRNQYQALKT [CLSPN_Y887_P892T] = low bin
• RVFIKYLPEWT [PSEN1_Y240_L235R] = high bin
• GREEFYVHFVG [KAT8_Y90_YF] = high bin
• INNIDYYKKTT [FGFR2_Y656] = low bin
• AGRTGYDNREI [BCL2_Y9] = low bin
• IGRGSYAKVLL [PRKCZ_Y263] = low bin
• TFVVLYDAELT [ERCC4_Y581_R576T_YF] = high bin
• EFLRNYFTDKA [DSG2_Y775] = mid bin
• RTIPDYTSFNT [EPHB2_Y912] = high bin
• TTTQAYRVDER [PRKN_Y391] = low bin
